# TESTED SYSTEM: human PI3Kα (p110α/p85α) (Homo sapiens, UniProt P42336)
# Sequence (P42336 whole entry): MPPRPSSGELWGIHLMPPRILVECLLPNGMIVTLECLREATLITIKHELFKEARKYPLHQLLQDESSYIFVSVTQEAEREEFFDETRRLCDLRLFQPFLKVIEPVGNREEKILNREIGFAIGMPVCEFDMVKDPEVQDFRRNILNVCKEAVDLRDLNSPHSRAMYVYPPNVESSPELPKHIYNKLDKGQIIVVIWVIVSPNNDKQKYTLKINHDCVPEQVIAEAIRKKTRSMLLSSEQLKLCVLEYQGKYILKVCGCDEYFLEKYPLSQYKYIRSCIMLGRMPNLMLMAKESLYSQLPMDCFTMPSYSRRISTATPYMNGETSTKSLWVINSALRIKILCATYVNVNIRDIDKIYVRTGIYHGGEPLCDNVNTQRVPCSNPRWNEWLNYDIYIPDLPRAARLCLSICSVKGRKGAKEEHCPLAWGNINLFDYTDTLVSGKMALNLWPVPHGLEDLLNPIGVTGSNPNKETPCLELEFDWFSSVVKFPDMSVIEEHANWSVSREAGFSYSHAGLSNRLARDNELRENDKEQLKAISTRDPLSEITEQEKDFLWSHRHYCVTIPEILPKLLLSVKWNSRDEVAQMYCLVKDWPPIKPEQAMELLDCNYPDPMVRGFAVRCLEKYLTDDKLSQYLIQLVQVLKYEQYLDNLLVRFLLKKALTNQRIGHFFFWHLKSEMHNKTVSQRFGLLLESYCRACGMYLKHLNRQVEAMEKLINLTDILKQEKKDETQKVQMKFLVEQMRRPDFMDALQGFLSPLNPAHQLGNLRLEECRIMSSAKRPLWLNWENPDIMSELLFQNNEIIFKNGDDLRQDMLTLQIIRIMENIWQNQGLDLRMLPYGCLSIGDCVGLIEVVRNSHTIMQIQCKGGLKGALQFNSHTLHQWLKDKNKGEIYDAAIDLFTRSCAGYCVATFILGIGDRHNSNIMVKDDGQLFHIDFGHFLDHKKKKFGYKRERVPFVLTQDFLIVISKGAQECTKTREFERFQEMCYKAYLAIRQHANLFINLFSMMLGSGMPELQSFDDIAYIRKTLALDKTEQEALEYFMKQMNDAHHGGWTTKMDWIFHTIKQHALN
# Sequence (P27986 whole entry partner): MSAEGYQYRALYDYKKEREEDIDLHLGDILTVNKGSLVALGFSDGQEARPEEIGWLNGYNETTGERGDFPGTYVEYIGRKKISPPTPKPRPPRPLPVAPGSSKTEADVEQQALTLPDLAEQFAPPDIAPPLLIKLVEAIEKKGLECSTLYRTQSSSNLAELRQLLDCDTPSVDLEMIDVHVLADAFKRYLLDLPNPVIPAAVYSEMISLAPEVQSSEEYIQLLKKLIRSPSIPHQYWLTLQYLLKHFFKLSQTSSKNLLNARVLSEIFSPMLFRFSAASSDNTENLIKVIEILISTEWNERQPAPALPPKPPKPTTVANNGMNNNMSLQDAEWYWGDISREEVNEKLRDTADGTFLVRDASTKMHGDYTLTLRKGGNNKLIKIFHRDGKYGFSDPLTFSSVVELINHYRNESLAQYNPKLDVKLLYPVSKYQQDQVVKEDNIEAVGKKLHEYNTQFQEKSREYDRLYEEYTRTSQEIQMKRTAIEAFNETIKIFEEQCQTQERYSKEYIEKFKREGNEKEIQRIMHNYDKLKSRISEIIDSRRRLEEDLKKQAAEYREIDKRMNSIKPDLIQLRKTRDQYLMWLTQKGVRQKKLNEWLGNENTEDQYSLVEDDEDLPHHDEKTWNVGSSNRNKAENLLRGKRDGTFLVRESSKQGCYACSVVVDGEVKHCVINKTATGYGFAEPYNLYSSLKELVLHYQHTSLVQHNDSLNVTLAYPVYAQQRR
# ASSAY COMMENT: Inhibition of PI3Kα kinase activity, ADP-Glo Assay (Reaction Biology)
# CONDITION PARAMETERS: 10 μM ATP; mean of two replicates; Table 12; read-out: Inhibition of kinase activity (as IC50) PICK
IC50 strictly under 5 µM means 1.0; at 5 µM or over means 0.0.

In [3]: df
Out[3]:
                                    molecule  assigned_class
 0  COc1ccc(N(C(=O)OCc2cnc([N+](=O)[O-])n2C)c2cc3c(cn2)n(C)c(=O)n3C2CCCC2)c(C)c1 [Compound 247]             0.0
 1  COc1ccc(Nc2cc3c(cn2)n(C)c(=O)n3C2CCN(C(=O)OCc3cnc([N+](=O)[O-])n3C)CC2)c(C)c1 [Compound 252]             1.0
 2  Cc1cc(Cl)cnc1Nc1cc2c(cn1)n(C)c(=O)n2C1CCOCC1 [Compound 217]             0.0
 3  COCCn1c(=O)n(C)c2cnc(Nc3ccc(Cl)cc3C)cc21 [Compound 105]             1.0
 4  Cc1cc(Cl)ccc1N(C(=O)OCc1cnc([N+](=O)[O-])n1C)c1cc2c(cn1)n(C)c(=O)n2C1CCOCC1 [Compound 257]             0.0
 5  COc1ccc(Nc2cc3c(cn2)n(C)c(=O)n3C2CCC(NC(=O)OCc3cnc([N+](=O)[O-])n3C)CC2)c(C)c1 (stereo not drawn) [Compound 253]             1.0
 6  COc1ccc(-c2ccc(Nc3cc4c(cn3)n(C)c(=O)n4C3CCOCC3)cc2)cn1 [Compound 223]             0.0
 7  Cc1cc(OCc2ccccc2)ccc1Nc1cc2c(cn1)n(C)c(=O)n2C1CCOCC1 [Compound 124]             0.0
 8  Cc1cc2ncc(C(=O)O)n2cc1Nc1cc2c(cn1)n(C)c(=O)n2C1CCOCC1 [Compound 136]             1.0
 9  Cc1cc2nccnc2cc1Nc1cc2c(cn1)n(C)c(=O)n2C1CCOCC1 [Compound 225]             1.0
10  Cc1cc(Cl)ccc1Nc1cc2c(cn1)n(C)c(=O)n2C1CCOC1 (stereo not drawn) [Compound 116]             0.0
11  COc1cc(C)c(Nc2cc3c(cn2)n(C)c(=O)n3C2CCOCC2)cc1OC [Compound 216]             1.0
